assay: PSAC antagonists in infected red cells, primary screen, cell-based, P. falciparum Indochina, OD700, 1 h (AID 1154); details: P. falciparum Indochina infected RBC osmotic lysis, higher = more signal, called active from +8 up or from −8 down
measurementName: z-score

> print(dat)
                                    compound  measvalue
 1  CO[C@@H]1COC(=O)[C@@H]2CCCN2C(=O)[C@@H](C)COC(=O)CCC[C@H]1C     -0.238
 2      CO[C@@H]1[C@H](O)CO[C@H]1C=Cc1ccccc1        2.7
 3  COC(=O)[C@H](Cc1ccccc1)NC(=O)[C@@H](C)CO     0.0772
 4  O=C1[C@H]2[C@H]3[C@H](O)[C@H](O)CC(=NOC[C@@H](O)COCc4ccco4)[C@@H]3CC[C@H]2C(=O)N1Cc1ccccc1       28.6
 5  C[C@@H](c1ccccc1)N1C(=O)[C@H]2[C@H]3[C@H](O)[C@H](O)CC(=NNC(=O)OCc4ccccc4)[C@@H]3CC[C@H]2C1=O     0.0012
 6  C[C@H]1CC[C@H]2C(=O)N[C@H](Cc3ccccc3)C(=O)N2[C@@H]1c1ccccc1     -0.189
 7  CCc1cc2c(nc1CC)CCN(CCC(C)=NOC[C@@H](C)[C@H](OCc1ccccc1)C(C)C)C2       1.29
 8             Cc1ccc(C(C)C)n1C(=O)OC(C)(C)C     -0.446
 9  COC(=O)[C@H](C)NC(=O)CCC1CC(OC(=O)NCc2cccc3ccccc23)CC2(CCCC(COC(=O)NCCC(C)C)O2)O1 (stereo partly drawn)       6.93
10  CC(C)CON=C1C[C@@H](O)[C@@H](O)[C@@H]2[C@@H]3C(=O)N(Cc4ccc5c(c4)OCO5)C(=O)[C@@H]3CC[C@@H]12       7.64
11  COc1cccc([C@H]2Oc3ccc(OC)cc3C(=NO[C@@H](C)c3cc(-c4c(C)cc(C)cc4C)no3)[C@@H]2O)c1       5.05
12  CCN1C(=O)[C@H]2[C@H]3[C@H](O)[C@H](O)CC(=NOCC[C@@H]4C=C[C@H](OC(C)=O)[C@@H](COC(C)=O)O4)[C@@H]3CC[C@H]2C1=O      0.422
13  CC(C)CON=C1C[C@@H](O)[C@@H](O)[C@@H]2[C@@H]3C(=O)N([C@@H](C)c4ccccc4)C(=O)[C@@H]3CC[C@@H]12      0.694
